Measured Selectivity index CC50/IC50 by item
# System: DENV 2
# ASSAY INFO: Foci forming unit reduction assay (FFURA, secondary evaluation)
# Type: cell-based, dengue virus type 2 (DENV 2)
# TEST CONTEXT: CC50 (Vero, MTT) / IC50 (FFURA, DENV 2)

// worked examples, Selectivity index CC50/IC50 included
CC1(C)[C@@H]2CC[C@@]1(C)/C(=N/NC(=S)SCc1ccccc1)C2 : 10.4
CSC(=S)N/N=C1\C[C@@H]2CC[C@@]1(C)C2(C)C : 14.3
CC1(C)[C@H]2CC[C@]1(C)/C(=N/NC(=S)SCc1ccccc1)C2 : 12.8

Now for a further compound.
// sample "CSC(=S)N/N=C1\C[C@H]2CC[C@]1(C)C2(C)C" , its Selectivity index CC50/IC50 was 12.8

====

Measured CC50 at 4 days by item
# ASSAY INFO: MTT cytotoxicity assay
# Assay type: cell-based
# TEST CONTEXT: African green monkey (Chlorocebus sp.), Vero cells (kidney), four days incubation, Table 4

CSC(=S)N/N=C1\C[C@@H]2CC[C@@]1(C)C2(C)C [SMSCM] : 88.7 µM
C=C(C)[C@@H]1CC=C(C)/C(=N/NC(=S)SCc2ccccc2)C1 [SBRCV] : 28.5 µM
CC1(C)[C@H]2CC[C@]1(C)/C(=N/NC(=S)SCc1ccccc1)C2 [SBSCM] : 87.2 µM

Now for a further compound.
// sample C=C(C)[C@@H]1CC=C(C)/C(=N/NC(=S)SC)C1 [SMRCV] , its CC50 at 4 days was 31.1 µM

====

# System: DENV 2
# ASSAY INFO: Foci forming unit reduction assay (FFURA, secondary evaluation)
# Assay type: cell-based, dengue virus type 2 (DENV 2)
# TEST CONTEXT: Dengue virus, Vero, 96 h, read-out: IC50 ± SE
READOUT LABEL: pIC50
For clarity, pIC50 is expressed as the negative log10 of concentration in mol/L.

// sample CSC(=S)N/N=C1\C(=O)[C@@]2(C)CC[C@@H]1C2(C)C [SMSCQ] , its pIC50 was 5.17

====

# ASSAY INFO: MTT cytotoxicity assay
# Type: cell-based
# TEST CONTEXT: African green monkey (Chlorocebus sp.), Vero cells (kidney), four days incubation, Table 4
# Experimental: Aedes albopictus clone C6/36 cells were maintained to propagate the dengue virus type 2 (DENV 2); African green monkey ( Chlorocebus sp.) kidney Vero cells were grown for antiviral analysis. […] The 96-well plates were seeded with 100 µL of Vero cell suspension at a density of 1 × 10^5 cells / mL and the next day were treated with different dilutions of the synthesized compounds. […] The percentage cell viability was calculated against the untreated controls. […]
So basically: is CC50 at 4 days under 80 µM? Then class 1. Not under? Then class 0.

Take the compound C=C(C)[C@H]1CC=C(C)/C(=N/NC(=S)SCc2ccccc2)C1 [SBSCV] and say whether its CC50 at 4 days is less than 80 µM. class 1

Take the compound CSC(=S)N/N=C1\C[C@H]2CC[C@]1(C)C2(C)C [SMRCM] and say whether its CC50 at 4 days is less than 80 µM. class 0

Take the compound C=C(C)[C@H]1CC=C(C)/C(=N/NC(=S)SC)C1 [SMSCV] and say whether its CC50 at 4 days is less than 80 µM. class 1

Take the compound CSC(=S)N/N=C1\C(=O)[C@@]2(C)CC[C@@H]1C2(C)C [SMSCQ] and say whether its CC50 at 4 days is less than 80 µM. class 1

The reported measurements were obtained from paper PMC7751940.
